Target: TLR4 (Homo sapiens, UniProt O00206+Q9Y6Y9)
Sequence (O00206 24-839): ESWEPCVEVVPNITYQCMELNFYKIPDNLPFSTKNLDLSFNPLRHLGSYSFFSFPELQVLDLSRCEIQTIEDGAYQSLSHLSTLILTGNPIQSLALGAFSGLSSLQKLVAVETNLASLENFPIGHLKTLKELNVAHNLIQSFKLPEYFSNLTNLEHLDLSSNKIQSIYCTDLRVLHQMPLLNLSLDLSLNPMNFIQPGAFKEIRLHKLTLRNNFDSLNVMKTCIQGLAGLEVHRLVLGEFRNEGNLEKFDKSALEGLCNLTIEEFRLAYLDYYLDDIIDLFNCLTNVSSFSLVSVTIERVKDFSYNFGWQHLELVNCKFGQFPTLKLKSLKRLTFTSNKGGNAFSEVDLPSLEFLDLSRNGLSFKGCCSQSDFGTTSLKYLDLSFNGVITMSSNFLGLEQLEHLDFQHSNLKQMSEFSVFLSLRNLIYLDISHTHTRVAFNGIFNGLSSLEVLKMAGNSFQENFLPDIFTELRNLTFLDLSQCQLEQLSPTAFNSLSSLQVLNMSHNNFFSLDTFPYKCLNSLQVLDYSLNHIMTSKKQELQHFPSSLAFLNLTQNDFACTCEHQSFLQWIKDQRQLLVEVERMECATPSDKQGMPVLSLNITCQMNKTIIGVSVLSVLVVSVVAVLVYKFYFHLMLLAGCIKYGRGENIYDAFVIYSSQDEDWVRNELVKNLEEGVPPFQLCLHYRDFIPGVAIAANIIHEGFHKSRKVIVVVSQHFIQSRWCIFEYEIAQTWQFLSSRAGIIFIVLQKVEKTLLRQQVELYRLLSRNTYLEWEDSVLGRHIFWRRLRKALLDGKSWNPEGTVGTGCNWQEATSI
Sequence (Q9Y6Y9 17-160 limits assumed): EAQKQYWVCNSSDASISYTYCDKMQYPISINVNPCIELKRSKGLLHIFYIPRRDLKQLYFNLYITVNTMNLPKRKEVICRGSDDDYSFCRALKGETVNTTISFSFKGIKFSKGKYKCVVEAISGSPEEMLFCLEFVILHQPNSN
Test: TLR4, human (Tables 1-3); further: test concentration or dose not given here
Assay type: cell-based
Conditions: Table 2, R^2 series; Compound 1 = 100
Readout Kind: human TLR4

Compound | Readout Kind | Comparison Symbol | Assay Result
O=C(CSc1nc2c([nH]c3ccccc32)c(=O)n1-c1ccccc1)Nc1nccs1 [Compound 21] | human TLR4 | = | 12
CCC(CC)NC(=O)CSc1nc2c([nH]c3ccccc32)c(=O)n1-c1ccccc1 [Compound 31] | human TLR4 | = | 11
CCNC(=O)CSc1nc2c([nH]c3ccccc32)c(=O)n1-c1ccccc1 [Compound 22] | human TLR4 | = | 8
O=C(CSc1nc2c([nH]c3ccccc32)c(=O)n1-c1ccccc1)NCc1ccco1 [Compound 19] | human TLR4 | = | 27
O=C(CSc1nc2c([nH]c3ccccc32)c(=O)n1-c1ccccc1)Nc1ccc2cn[nH]c2c1 [Compound 20] | human TLR4 | < | 1
O=C(CSc1nc2c([nH]c3ccccc32)c(=O)n1-c1ccccc1)Nc1ccc(F)cc1 [Compound 14] | human TLR4 | = | 108
CC(C)(C)CCNC(=O)CSc1nc2c([nH]c3ccccc32)c(=O)n1-c1ccccc1 [Compound 28] | human TLR4 | = | 72
O=C(CSc1nc2c([nH]c3ccccc32)c(=O)n1-c1ccccc1)NC1CCCCC1 [Compound 1] | human TLR4 | = | 100
O=C(CSc1nc2c([nH]c3ccccc32)c(=O)n1-c1ccccc1)NCC1CCCO1 (stereo not shown) [Compound 33] | human TLR4 | = | 13
O=C(CSc1nc2c([nH]c3ccccc32)c(=O)n1-c1ccccc1)Nc1cccc(F)c1 [Compound 16] | human TLR4 | = | 39
O=C(CSc1nc2c([nH]c3ccccc32)c(=O)n1-c1ccccc1)NC1CCCCCCC1 [Compound 10] | human TLR4 | = | 64
CCCCCCNC(=O)CSc1nc2c([nH]c3ccccc32)c(=O)n1-c1ccccc1 [Compound 25] | human TLR4 | = | 8
CC(C)CCNC(=O)CSc1nc2c([nH]c3ccccc32)c(=O)n1-c1ccccc1 [Compound 27] | human TLR4 | = | 38
CCCC(C)NC(=O)CSc1nc2c([nH]c3ccccc32)c(=O)n1-c1ccccc1 (stereo not shown) [Compound 30] | human TLR4 | = | 13
O=C(CSc1nc2c([nH]c3ccccc32)c(=O)n1-c1ccccc1)Nc1ccccc1F [Compound 15] | human TLR4 | = | 71
O=C(CSc1nc2c([nH]c3ccccc32)c(=O)n1-c1ccccc1)NC1CCC1 [Compound 12] | human TLR4 | = | 32
CC(C)CNC(=O)CSc1nc2c([nH]c3ccccc32)c(=O)n1-c1ccccc1 [Compound 26] | human TLR4 | = | 21
O=C(CSc1nc2c([nH]c3ccccc32)c(=O)n1-c1ccccc1)Nc1ccc2ccccc2c1 [Compound 18] | human TLR4 | = | 21
Cc1cccc(NC(=O)CSc2nc3c([nH]c4ccccc43)c(=O)n2-c2ccccc2)c1 [Compound 17] | human TLR4 | = | 116

* * *

Target: TLR4 (Mus musculus, UniProt Q9JHF9+Q9QUK6)
Sequence (Q9QUK6 26-835): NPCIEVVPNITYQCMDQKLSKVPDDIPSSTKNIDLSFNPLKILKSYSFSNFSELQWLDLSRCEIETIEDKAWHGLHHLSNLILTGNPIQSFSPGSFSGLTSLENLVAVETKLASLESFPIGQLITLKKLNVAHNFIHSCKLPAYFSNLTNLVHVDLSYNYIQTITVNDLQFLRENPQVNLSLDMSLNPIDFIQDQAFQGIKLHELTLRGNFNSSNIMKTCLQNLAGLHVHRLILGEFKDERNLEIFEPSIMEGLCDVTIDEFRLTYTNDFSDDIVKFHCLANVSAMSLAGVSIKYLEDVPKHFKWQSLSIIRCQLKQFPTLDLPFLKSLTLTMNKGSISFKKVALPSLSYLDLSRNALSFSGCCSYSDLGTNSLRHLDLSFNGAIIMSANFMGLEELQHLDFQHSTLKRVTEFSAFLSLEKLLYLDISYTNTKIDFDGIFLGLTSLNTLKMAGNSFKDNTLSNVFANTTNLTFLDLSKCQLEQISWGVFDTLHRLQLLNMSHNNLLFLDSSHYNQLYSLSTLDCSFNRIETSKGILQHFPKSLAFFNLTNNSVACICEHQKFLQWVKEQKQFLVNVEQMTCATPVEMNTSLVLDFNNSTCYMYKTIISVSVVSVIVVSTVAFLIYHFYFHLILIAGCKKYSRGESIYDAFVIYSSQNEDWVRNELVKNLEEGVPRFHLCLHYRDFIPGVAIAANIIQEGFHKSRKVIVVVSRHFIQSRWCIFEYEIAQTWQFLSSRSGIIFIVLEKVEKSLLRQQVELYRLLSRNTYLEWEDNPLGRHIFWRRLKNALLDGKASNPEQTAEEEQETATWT
Sequence (Q9JHF9 19-160): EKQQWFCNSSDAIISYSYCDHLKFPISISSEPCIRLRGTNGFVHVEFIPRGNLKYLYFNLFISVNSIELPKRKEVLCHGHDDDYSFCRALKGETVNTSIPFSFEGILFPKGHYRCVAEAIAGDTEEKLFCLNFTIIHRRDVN
Assay: TLR4, mouse (Tables 1-3); further: test concentration or dose not given here
Type: cell-based
Details: Table 2, R^2 series; Compound 1 = 100

Compound | Comparison Symbol | mouse TLR4
O=C(CSc1nc2c([nH]c3ccccc32)c(=O)n1-c1ccccc1)Nc1ccc2cn[nH]c2c1 | < | 1
CCC(CC)NC(=O)CSc1nc2c([nH]c3ccccc32)c(=O)n1-c1ccccc1 | = | 8
CCC(C)CCNC(=O)CSc1nc2c([nH]c3ccccc32)c(=O)n1-c1ccccc1 (centres unmarked) | = | 29
O=C(CSc1nc2c([nH]c3ccccc32)c(=O)n1-c1ccccc1)NC1CCCCCC1 | = | 99
CC(C)CNC(=O)CSc1nc2c([nH]c3ccccc32)c(=O)n1-c1ccccc1 | = | 24
O=C(CSc1nc2c([nH]c3ccccc32)c(=O)n1-c1ccccc1)Nc1ccccc1F | = | 43
Cc1cccc(NC(=O)CSc2nc3c([nH]c4ccccc43)c(=O)n2-c2ccccc2)c1 | = | 13
O=C(CSc1nc2c([nH]c3ccccc32)c(=O)n1-c1ccccc1)NCc1ccco1 | = | 5
O=C(CSc1nc2c([nH]c3ccccc32)c(=O)n1-c1ccccc1)NC1CCCC1 | = | 28
O=C(CSc1nc2c([nH]c3ccccc32)c(=O)n1-c1ccccc1)NC1CCC1 | = | 18
CCCCCCNC(=O)CSc1nc2c([nH]c3ccccc32)c(=O)n1-c1ccccc1 | = | 4
CCCC(C)NC(=O)CSc1nc2c([nH]c3ccccc32)c(=O)n1-c1ccccc1 (centres unmarked) | = | 17
O=C(CSc1nc2c([nH]c3ccccc32)c(=O)n1-c1ccccc1)Nc1ccccc1 | = | 21
O=C(CSc1nc2c([nH]c3ccccc32)c(=O)n1-c1ccccc1)Nc1ccc(F)cc1 | = | 81
O=C(CSc1nc2c([nH]c3ccccc32)c(=O)n1-c1ccccc1)NC1CCCCCCC1 | = | 95
O=C(CSc1nc2c([nH]c3ccccc32)c(=O)n1-c1ccccc1)NC1CCCCC1 | = | 100
O=C(CSc1nc2c([nH]c3ccccc32)c(=O)n1-c1ccccc1)Nc1ccc2ccccc2c1 | = | 2

* * *

Target: TLR4 (Mus musculus, UniProt Q9JHF9+Q9QUK6)
Experiment: TLR4, mouse (Tables 1-3); further: test concentration or dose not given here
Format: cell-based
Settings: Table 3, R^1 series; Compound 1 = 100

Chemical Structure | mouse TLR4
O=C(CSc1nc2c([nH]c3ccccc32)c(=O)n1C1CCCCC1)NC1CCCCC1 | 56
Cc1ccc(-n2c(SCC(=O)NC3CCCCC3)nc3c([nH]c4ccccc43)c2=O)cc1 | 2
O=C(CSc1nc2c([nH]c3ccccc32)c(=O)n1-c1ccccc1)NC1CCCCC1 | 100
O=C(CSc1nc2c([nH]c3ccccc32)c(=O)n1-c1ccc2ccccc2c1)NC1CCCCC1 | 6
O=C(CSc1nc2c([nH]c3ccccc32)c(=O)n1-c1ccc(F)cc1)NC1CCCCC1 | 41
O=C(CSc1nc2c([nH]c3ccccc32)c(=O)n1CCc1ccccc1)NC1CCCCC1 | 1

* * *

mouse TLR4 for assorted compounds
Target: TLR4 (Mus musculus, UniProt Q9JHF9+Q9QUK6)
Experiment: TLR4, mouse (Tables 1-3); further: test concentration or dose not given here
Type: cell-based
Conditions: Table 1, R^3 series; Compound 1 = 100
Readout Kind: mouse TLR4

Chemical Structure | Assay Result
O=C(CSc1nc2c([nH]c3ccccc32)c(=O)n1-c1ccccc1)NC1CCCCC1 | 100
CCCCCn1c2ccccc2c2nc(SCC(=O)NC3CCCCC3)n(-c3ccccc3)c(=O)c21 | 6
N#CCn1c2ccccc2c2nc(SCC(=O)NC3CCCCC3)n(-c3ccccc3)c(=O)c21 | 55
Cn1c2ccccc2c2nc(SCC(=O)NC3CCCCC3)n(-c3ccccc3)c(=O)c21 | 100
CCCCCCCCCCCCn1c2ccccc2c2nc(SCC(=O)NC3CCCCC3)n(-c3ccccc3)c(=O)c21 | 4

* * *

Target: TLR4 (Homo sapiens, UniProt O00206+Q9Y6Y9)
Assay: TLR4, human (Tables 1-3); further: test concentration or dose not given here
Format: cell-based
Settings: Table 1, R^3 series; Compound 1 = 100
Output t for human TLR4 not less than 20; output f otherwise.

Compound | Qualitative Label
CCCCCn1c2ccccc2c2nc(SCC(=O)NC3CCCCC3)n(-c3ccccc3)c(=O)c21 [Compound 49] | f
Cn1c2ccccc2c2nc(SCC(=O)NC3CCCCC3)n(-c3ccccc3)c(=O)c21 [Compound 42] | t
N#CCn1c2ccccc2c2nc(SCC(=O)NC3CCCCC3)n(-c3ccccc3)c(=O)c21 [Compound 51] | f
CCCCCCCCCCCCn1c2ccccc2c2nc(SCC(=O)NC3CCCCC3)n(-c3ccccc3)c(=O)c21 [Compound 50] | f
O=C(CSc1nc2c([nH]c3ccccc32)c(=O)n1-c1ccccc1)NC1CCCCC1 [Compound 1] | t

* * *

System: IL-6
Assay: IL-6, mouse (Tables 1-3); further: test concentration or dose not given here
Assay type: cell-based
Conditions: Table 3, R^1 series; Compound 1 = 100
mouse IL-6 for assorted compounds

Compound | Tgt | Comparison Symbol | mouse IL-6
Cc1ccc(-n2c(SCC(=O)NC3CCCCC3)nc3c([nH]c4ccccc43)c2=O)cc1 [Compound 38] | IL-6 | < | 1
O=C(CSc1nc2c([nH]c3ccccc32)c(=O)n1-c1ccc2ccccc2c1)NC1CCCCC1 [Compound 39] | IL-6 | = | 3
O=C(CSc1nc2c([nH]c3ccccc32)c(=O)n1C1CCCCC1)NC1CCCCC1 [Compound 36] | IL-6 | = | 71
O=C(CSc1nc2c([nH]c3ccccc32)c(=O)n1CCc1ccccc1)NC1CCCCC1 [Compound 40] | IL-6 | < | 1
O=C(CSc1nc2c([nH]c3ccccc32)c(=O)n1-c1ccc(F)cc1)NC1CCCCC1 [Compound 37] | IL-6 | = | 48
O=C(CSc1nc2c([nH]c3ccccc32)c(=O)n1-c1ccccc1)NC1CCCCC1 [Compound 1] | IL-6 | = | 100
